Sourced from patent US20240360227A1

binders and their reported pKd
target: Recombinant human his-tagged IGF R extracellular domain protein (human) (UniProt P08069); experiment: SPR, Ab captured via anti-huIgG Fc, dissociation at pH 6
Please note pKd is a logarithmic value: minus log10 of concentration in mol/L. Answer with that number alone.

Some entries whose results are on file:
[
  {
    "binder": "VRDN-02028 (antibody, V domains shown) VH: QVQLQESGPGLVKPSETLSLTCTVSGYSITGGYLWNWIRQPPGKGLEWIGYISYDGTNNYKPSLKDRVTISRDTSKNQFSLKLSSVTAADTAVYYCARYGRVFFDHWGQGTLVTVSS VL: DIVMTQSPLSLPVTPGEPASISCRSSQSIVHSNGNTYLQWYLQKPGQSPQLLIYKVSNRLYGVPDRFSGSGSGTDFTLKISRVEAEDVGVYYCFQGSHVPWTFGQGTKVEIK",
    "pKd": 8.95
  },
  {
    "binder": "VRDN-02068 (antibody, V domains shown) VH: QVQLQESGPGLVKPSETLSLTCTVSGYSITGGYLWNWIRQPPGKGLEWIGYIHYDGTNNYKPSLKDRVTISRDTSKNQFSLKLSSVTAADTAVYYCARYGRVFFDYWGQGTLVTVSS VL: DIVMTQSPLSLPVTPGEPASISCRSSQSIVHSNGNTYLQWYLQKPGQSPQLLIYKVSNRLYGVPDRFSGSGSGTDFTLKISRVEAEDVGVYYCFQGSHVPHTFGQGTKVEIK",
    "pKd": 9.42
  }
]

q: Query pKd for VRDN-02049 (antibody, V domains shown) VH: QVQLQESGPGLVKPSETLSLTCTVSGYSITGGYLWNWIRQPPGKGLEWIGYISYDGTNNYKPSLKDRVTISRDTSKNQFSLKLSSVTAADTAVYYCARYGRVFFDYWGQGTLVTVSS VL: DIVMTQSPLSLPVTPGEPASISCRSSQSIVHSNGNTYLQWYLQKPGQSPQLLIYKVSNRHYGVPDRFSGSGSGTDFTLKISRVEAEDVGVYYCFQGSHVPWTFGQGTKVEIK
a: 8.94

q: Query pKd for VRDN-02070 (antibody, V domains shown) VH: QVQLQESGPGLVKPSETLSLTCTVSGYSITGGYLWNWIRQPPGKGLEWIGYISYDGTNNYKPSLKDRVTISRDTSKNQFSLKLSSVTAADTAVYYCARHGRVFFDYWGQGTLVTVSS VL: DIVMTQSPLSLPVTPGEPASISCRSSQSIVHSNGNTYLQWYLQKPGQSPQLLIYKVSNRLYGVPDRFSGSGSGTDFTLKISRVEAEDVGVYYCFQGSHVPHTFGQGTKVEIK
a: 9.47

q: Query pKd for VRDN-02062 (antibody, V domains shown) VH: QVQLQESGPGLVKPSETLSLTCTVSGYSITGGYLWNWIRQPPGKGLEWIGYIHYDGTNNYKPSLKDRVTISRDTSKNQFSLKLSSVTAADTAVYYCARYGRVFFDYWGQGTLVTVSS VL: DIVMTQSPLSLPVTPGEPASISCRSSQSIVHSNGNTYLQWYLQKPGQSPQLLIYKVSNRLYGVPDRFSGSGSGTDFTLKISRVEAEDVGVYYCFHGSHVPWTFGQGTKVEIK
a: 9.78
